Here the recorded Emax is given for each entry.
# assayedTarget: GST tagged LXRbeta LBD (ligand binding domain) (Homo sapiens)
# Construct: purchased Invitrogen pv4658.pps
# Sequence (P55055 222-460 limits assumed): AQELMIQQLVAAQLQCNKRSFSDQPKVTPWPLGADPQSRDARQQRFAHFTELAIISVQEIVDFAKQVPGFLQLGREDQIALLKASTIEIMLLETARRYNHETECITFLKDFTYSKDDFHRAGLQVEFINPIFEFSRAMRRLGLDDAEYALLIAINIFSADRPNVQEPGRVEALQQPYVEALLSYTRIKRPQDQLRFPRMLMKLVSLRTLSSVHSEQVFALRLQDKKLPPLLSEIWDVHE
# methodDescription: LanthaScreen TR-FRET Liver X Receptor Coactivator Assay, LXR beta-LBD
# Format: biochemical
# reportedConditions: activity at max dose (efficacy), relative to reference T0901317; read-out: LXR beta act @ max dose (%)
Kindly report the value followed by its unit.

Answered cases to consult:
molecule: CN(Cc1ccon1)C(=O)c1ccc(N2CCC(C3CCN(C(=O)[C@](O)(c4ccccc4)C(F)(F)F)CC3)CC2)cc1Cl [Example E-52]
assayedTarget: GST tagged LXRbeta LBD (ligand binding domain) (Homo sapiens)
Emax: 78%
--
molecule: CC(C)C(O)(C(=O)N1CCC(C2CCN(c3cc(Cl)c(C(=O)N(C)C)c(Cl)c3)CC2)CC1)C(F)(F)F (centres unmarked) [Example A-34]
assayedTarget: GST tagged LXRbeta LBD (ligand binding domain) (Homo sapiens)
Emax: 103%

Task item: Given the entry CC(C)(C)OC(=O)NC1CN(C(=O)c2ccc(N3CCC(C4CCN(C(=O)[C@](O)(c5ccccc5)C(F)(F)F)CC4)CC3)cc2Cl)C1 [Example E-56] , report its measured Emax.
Reply: 89%

Task item: Given the entry CN(C)C(=O)c1ccc(N2CCC(C3CCN(C(=O)C(C)(C)C(F)(F)F)CC3)CC2)cc1Cl [Example A-41] , report its measured Emax.
Reply: 112%

Task item: Given the entry CN(CC1CC1(C)C)C(=O)c1ccc(N2CCC(C3CCN(C(=O)c4c(F)cccc4F)CC3)CC2)cc1Cl (centres unmarked) [Example E-15] , report its measured Emax.
Reply: 54%

Task item: Given the entry CN(C)C(=O)c1ccc(N2CCC(C3CCN(C(=O)C(C)(C)c4ccccc4)CC3)CC2)nc1Cl [Example B-12] , report its measured Emax.
Reply: 140%

Task item: Given the entry CC(C)[C@@](O)(C(=O)N1CCC(C2CCN(c3ccc(C(=O)N(C)C)c(Cl)c3)CC2)CC1)C(F)(F)F (single isomer, unassigned) [Example A-2] , report its measured Emax.
Reply: 100%

Task item: Given the entry CN(C)C(=O)c1ccc(N2CCC(C3CCN(S(=O)(=O)c4ccccc4C#N)CC3)CC2)cc1Cl [Example A-102] , report its measured Emax.
Reply: 130%

Task item: Given the entry COc1cccc([C@](O)(C(=O)N2CCC(C3CCN(c4ccc(C(=O)N(C)C)c(Cl)c4)CC3)CC2)C(F)(F)F)c1 (single isomer, unassigned) [Example A-66] , report its measured Emax.
Reply: 90%

Task item: Given the entry CC(C)(C)OC(=O)N1CCC(C2CCN(c3ccc(S(C)(=O)=O)c(Cl)c3)CC2)CC1 [Example D-9] , report its measured Emax.
Reply: 81%

Task item: Given the entry CC(C)C(O)(C(=O)N1CCC(C2CCN(c3ccc(C(=O)N(C)C)c(Cl)n3)CC2)CC1)C(F)(F)F (centres unmarked) [Example B-4] , report its measured Emax.
Reply: 123%

Task item: Given the entry CS(=O)(=O)c1ccc(N2CCC(C3CCN(C(=O)c4c(F)cccc4F)CC3)CC2)cc1Cl [Example D-6] , report its measured Emax.
Reply: 49%

Task item: Given the entry CN(C)C(=O)c1ccc(N2CCC(C3CCN(C(=O)c4ccccc4Cl)CC3)CC2)cc1Cl [Example A-22] , report its measured Emax.
Reply: 58%

Task item: Given the entry COc1ccc(C2(C(=O)N3CCC(C4CCN(c5ccc(C(=O)N(C)C)c(Cl)c5)CC4)CC3)CCCC2)cc1 [Example A-46] , report its measured Emax.
Reply: 34%
